Measured values drawn from patent US20170166895 for this set.

# TARGET ENTITY: Complement component 3 (C3) (Homo sapiens) (UniProt P01024+P01024)
# Sequence (P01024 23-667, chain 1 of 2): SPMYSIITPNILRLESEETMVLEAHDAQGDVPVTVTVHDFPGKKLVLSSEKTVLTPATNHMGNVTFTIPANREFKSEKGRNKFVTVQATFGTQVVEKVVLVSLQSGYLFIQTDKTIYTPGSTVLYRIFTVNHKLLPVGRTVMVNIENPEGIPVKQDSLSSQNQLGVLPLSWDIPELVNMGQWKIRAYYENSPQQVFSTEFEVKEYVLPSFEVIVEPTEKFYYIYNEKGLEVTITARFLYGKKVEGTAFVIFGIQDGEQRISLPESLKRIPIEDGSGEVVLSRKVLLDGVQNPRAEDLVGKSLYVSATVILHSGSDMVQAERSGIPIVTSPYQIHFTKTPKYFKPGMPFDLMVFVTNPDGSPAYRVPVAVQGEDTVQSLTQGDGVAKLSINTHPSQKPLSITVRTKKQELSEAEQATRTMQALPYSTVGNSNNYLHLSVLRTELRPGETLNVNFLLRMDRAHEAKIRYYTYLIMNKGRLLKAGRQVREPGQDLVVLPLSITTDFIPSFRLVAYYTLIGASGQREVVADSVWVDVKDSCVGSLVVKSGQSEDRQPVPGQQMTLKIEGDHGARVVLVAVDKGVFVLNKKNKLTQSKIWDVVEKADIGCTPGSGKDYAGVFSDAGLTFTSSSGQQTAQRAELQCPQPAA
# Sequence (P01024 672-1663, chain 2 of 2): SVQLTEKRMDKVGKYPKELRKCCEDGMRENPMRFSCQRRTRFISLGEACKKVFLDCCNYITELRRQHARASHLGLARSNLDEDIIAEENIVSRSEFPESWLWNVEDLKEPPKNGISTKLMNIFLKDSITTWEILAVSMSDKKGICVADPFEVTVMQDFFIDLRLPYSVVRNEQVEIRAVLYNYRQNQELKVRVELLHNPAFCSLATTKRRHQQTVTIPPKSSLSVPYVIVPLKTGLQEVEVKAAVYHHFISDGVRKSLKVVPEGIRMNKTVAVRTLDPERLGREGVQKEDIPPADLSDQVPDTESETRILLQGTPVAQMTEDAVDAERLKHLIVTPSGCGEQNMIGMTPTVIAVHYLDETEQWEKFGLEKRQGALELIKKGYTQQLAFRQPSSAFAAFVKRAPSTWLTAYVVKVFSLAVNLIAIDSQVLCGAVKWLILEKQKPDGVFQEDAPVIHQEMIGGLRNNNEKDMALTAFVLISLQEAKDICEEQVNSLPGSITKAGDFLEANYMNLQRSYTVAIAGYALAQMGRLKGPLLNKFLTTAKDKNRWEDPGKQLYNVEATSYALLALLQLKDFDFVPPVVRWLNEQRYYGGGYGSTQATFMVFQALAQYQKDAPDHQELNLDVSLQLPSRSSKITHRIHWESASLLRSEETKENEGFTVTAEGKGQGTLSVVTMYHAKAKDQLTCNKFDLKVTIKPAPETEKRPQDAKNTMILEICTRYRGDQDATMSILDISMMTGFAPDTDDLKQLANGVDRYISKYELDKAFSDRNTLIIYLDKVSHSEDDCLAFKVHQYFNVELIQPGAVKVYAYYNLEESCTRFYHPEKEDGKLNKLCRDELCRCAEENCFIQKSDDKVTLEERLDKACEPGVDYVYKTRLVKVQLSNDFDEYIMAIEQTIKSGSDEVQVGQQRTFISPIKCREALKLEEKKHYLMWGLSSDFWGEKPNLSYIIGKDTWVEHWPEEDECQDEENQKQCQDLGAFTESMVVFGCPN
# PROTOCOL NOTES: filter
# SETTINGS: P = NapdU (all U); 2'-OMe A11; 3'-3' idT; SB18T0.01, 5 mM MgCl2, 37 C
pKd: −log10 of the molar value.
MEASURE NAME: pKd

biopolymer_sequence="CGGUGACUCAAUAGUCCGUACGUUCCCG [8491-94_69]" target_entity="Complement component 3 (C3) (Homo sapiens) (UniProt P01024+P01024)" measure_name=pKd endpoint_result=9.57

---

# TARGET ENTITY: Complement component 3 (C3) (Homo sapiens) (UniProt P01024+P01024)
# PROTOCOL NOTES: filter
# SETTINGS: all P = NapdU; 2'-OMe at 1,2,3,5,7,9,10,13,19,20,22-28; C3-spacer replaces C17; 3'-3' idT; SB18T0.01, 37C
Kd listing for selected sequences.
MEASURE NAME: Kd (nM)

biopolymer_sequence="GGGUGACUCAAUAGUCGUACAUUCCCC [8491-94_136]" measure_name=Kd endpoint_result=9.1
biopolymer_sequence="GGGUGACUCAAUAGUCGUACGUUCCCC [8491-94_134]" measure_name=Kd endpoint_result=0.107
